Measured values drawn from patent US9296741B2 for this set.

Test: Rat liver microsome stability assay
Assay type: in vitro ADME
Details: rat liver microsomes (male Sprague-Dawley), 0.5 μM test compound, 0.25 mg/mL microsomal protein, pH 7.4, 37° C.; read-out: Stability in rat liver microsomes (t1/2 in minutes)
PROPERTY: half-life at 0.5 μM (min)
Answers are plain numbers, in min.

Some entries whose results are on file:
COMPOUND	VALUE REPORTED
Cn1cc(-c2ccccc2CN2CCOCC2)c2cc[nH]c2c1=O [Example 12]	10
Cn1cc(-c2cc(NS(C)(=O)=O)ccc2Oc2ccccc2C(F)(F)F)c2cc[nH]c2c1=O [Example 32]	82
Cn1cc(-c2cc(NS(=O)(=O)CCF)ccc2Oc2c(F)cc(F)cc2F)c2cc[nH]c2c1=O [Example 114]	5
Cn1cc(-c2cc(S(=O)(=O)c3ccccc3)ccc2OCC2CC2)c2cc[nH]c2c1=O [Example 285]	10

Required: half-life at 0.5 μM, one value per compound below.
1. CCS(=O)(=O)Nc1ccc(Oc2ccc(F)cc2F)c(-c2cn(C)c(=O)c3[nH]cc(CN4CCN(C)CC4)c23)c1 [Example 351]
2. Cn1cc(-c2cc(S(C)(=O)=O)ccc2Oc2ccc3ccncc3c2)c2cc[nH]c2c1=O [Example 172]

Response:
1: 66; 2: 15

---

Molecular target: human BRD4 first bromodomain (BDI_K57-E168) (Homo sapiens (Human))
Assay: TR-FRET bromodomain binding assay, BRD4 first bromodomain
PROPERTY: pKi
Numbers only, as −log10 of the molar value.

// solved cases for pKi follow
SMILES ENTRY	TESTED TARGET	VALUE REPORTED
Cn1cc(-c2cc(S(C)(=O)=O)ccc2Oc2ccc(F)cc2F)c2cc(C(=O)NCC(F)(F)F)[nH]c2c1=O	human BRD4 first bromodomain (BDI_K57-E168) (Homo sapiens (Human))	7.10
Cn1cc(-c2cc([N+](=O)[O-])ccc2Oc2ccccc2)c2cc[nH]c2c1=O	human BRD4 first bromodomain (BDI_K57-E168) (Homo sapiens (Human))	6.28
Cn1cc(-c2cc(NS(C)(=O)=O)ccc2Oc2c(F)cc(F)cc2F)c2cc[nH]c2c1=O	human BRD4 first bromodomain (BDI_K57-E168) (Homo sapiens (Human))	8.77
Cn1cc(-c2cc(NS(C)(=O)=O)ccc2OCc2ccccc2)c2cc[nH]c2c1=O	human BRD4 first bromodomain (BDI_K57-E168) (Homo sapiens (Human))	7.74
CCOC(=O)N1CCC(Oc2ccc(S(C)(=O)=O)cc2-c2cn(C)c(=O)c3[nH]ccc23)CC1	human BRD4 first bromodomain (BDI_K57-E168) (Homo sapiens (Human))	8.23

# per-item lookup of pKi; items listed below
1. Cn1cc(-c2cc(S(C)(=O)=O)ccc2OCC2CCCC2)c2cc[nH]c2c1=O
2. Cn1cc(-c2cc(S(=O)(=O)N3CCc4ccccc43)ccc2Oc2ccc(F)cc2F)c2cc[nH]c2c1=O
3. Cn1cc(-c2cc(NS(C)(=O)=O)ccc2OC2CCC(F)(F)CC2)c2cc[nH]c2c1=O

Response:
1: 8.62; 2: 6.43; 3: 9.08

---

Assay: Mouse liver microsome stability assay
Format: in vitro ADME
Details: male, CD1, mouse, microsomes, pH 7.4
Label t when half-life at 0.5 μM is strictly below 10 min; at or above that, label f.

COMPOUND	CATEGORY
CNS(=O)(=O)c1cnc(OCC2CC2)c(-c2cn(C)c(=O)c3[nH]ccc23)c1 [Example 208]	f
Cn1cc(-c2cc(S(C)(=O)=O)ccc2Oc2ccc(C#N)cc2)c2cc[nH]c2c1=O [Example 156]	f
Cn1cc(-c2cc(S(N)(=O)=O)ccc2Oc2ccccc2)c2cc[nH]c2c1=O [Example 95]	f
CCS(=O)(=O)Nc1ccc(OCC2CC2)c(-c2cn(C)c(=O)c3[nH]ccc23)c1 [Example 145]	f
Cn1cc(-c2cc(C(=O)N3CCN(C(=O)N4CCCC4)CC3)ccc2Oc2ccc(F)cc2F)c2cc[nH]c2c1=O [Example 119]	t
CN(C)S(=O)(=O)c1cnc(NCC2CC2)c(-c2cn(C)c(=O)c3[nH]ccc23)c1 [Example 245]	f
CCNC(=O)c1cc2c(-c3cc(S(C)(=O)=O)ccc3Oc3ccc(F)cc3F)cn(C)c(=O)c2[nH]1 [Example 253]	f
CCS(=O)(=O)c1ccc(Oc2ccc(F)cc2F)c(-c2cn(C)c(=O)c3[nH]ncc23)c1 [Example 322]	f
COC(=O)Cc1ccc(OCc2ccccc2)c(-c2cn(C)c(=O)c3[nH]ccc23)c1 [Example 45]	t
Cn1cc(-c2cc(CN3CCOCC3)ccc2OCC2CC2)c2cc[nH]c2c1=O [Example 316]	f

Please turn your attention to the following entry.
Request: Dear reviewer, please state whether CCS(=O)(=O)Nc1ccc(OC2CCOCC2)c(-c2cn(C)c(=O)c3[nH]ccc23)c1 [Example 109] has half-life at 0.5 μM strictly beneath 10 min.
Response: f

---

Biological target: human BRD4 second bromodomain (BDII_E352-M457) (Homo sapiens (Human))
Assay: TR-FRET bromodomain binding assay, BRD4 second bromodomain
pKi: −log10 of the molar value.
Kindly return Satisfied if reported pKi is no lower than 8; return Not satisfied if it is lower.

See these solved cases before continuing.
SMILES ENTRY	TESTED TARGET	CATEGORY
CCS(=O)(=O)c1ccc(OC2CCC3(CC2)OCCO3)c(-c2cn(C)c(=O)c3[nH]ccc23)c1	human BRD4 second bromodomain (BDII_E352-M457) (Homo sapiens (Human))	Satisfied
CCS(=O)(=O)Nc1ccc(Oc2ccc(F)cc2F)c(-c2cn(C)c(=O)c3[nH]cc(CN4CCOCC4)c23)c1	human BRD4 second bromodomain (BDII_E352-M457) (Homo sapiens (Human))	Not satisfied

Now consider a different molecule.
Request: Check the entry Cn1cc(-c2cc(CC#N)ccc2OCC2CC2)c2cc[nH]c2c1=O : does pKi equal or exceed 8?
Response: Not satisfied

---

Test system: 786-0
Assay: Proliferation panel assay, RCC 786-0
Assay type: cell-based
Conditions: Homo sapiens, read-out: Cellular Proliferation EC50
PROPERTY: pEC50
One number for each entry, as −log10 of the molar value.

SMILES ENTRY	pEC50
Cn1nc(-c2cc(NS(C)(=O)=O)ccc2Oc2ccccc2)c2cc(C(N)=O)[nH]c2c1=O	6.05

Request: Look up and report measured pEC50 for this entry: Cn1cc(-c2cc(NS(C)(=O)=O)ccc2Oc2ccccc2)c2cc[nH]c2c1=O
Response: 7.96

---

Experiment: Human liver microsome stability assay
Assay type: in vitro ADME
Conditions: both sexes, human, microsomes, pH 7.4
Assign half-life at 0.5 μM to each entry below.
One number for each entry, in min.

Solved cases (3 shown):
SMILES ENTRY	UNIT	half-life at 0.5 μM
Cn1cc(-c2cc(S(C)(=O)=O)ccc2Oc2ccc(F)c(F)c2)c2cc[nH]c2c1=O	min	40
Cn1cc(-c2cc(S(C)(=O)=O)ccc2Oc2ccc(F)cc2F)c2cc(C(=O)NCC(F)(F)F)[nH]c2c1=O	min	74
Cn1cc(-c2cc(S(C)(=O)=O)ccc2OC[C@H]2CCC(=O)N2)c2cc[nH]c2c1=O	min	105

In the following, a different molecule is considered.
Request: # return recorded half-life at 0.5 μM for input CCNc1ccc(Oc2ccccc2)c(-c2nn(C)c(=O)c3[nH]c(C(=O)OCC)cc23)c1
Response: 9

---

Target: human BRD4 second bromodomain (BDII_E352-M457) (Homo sapiens (Human), UniProt O60885)
Assay: TR-FRET bromodomain binding assay, BRD4 second bromodomain
Field: log10 of Ki. Provide a value for each of the compounds that follow.
Annotation: log10 of Ki, nM basis.

Record excerpt, results attached:
SMILES ENTRY	PROPERTY	VALUE REPORTED
CNS(=O)(=O)c1cnc(OCC2CC2)c(-c2cn(C)c(=O)c3[nH]ccc23)c1	log10 of Ki	0.78
Cn1cc(-c2cc(S(C)(=O)=O)ccc2Oc2cccc(N)c2)c2cc[nH]c2c1=O	log10 of Ki	0.56

Please report log10 of Ki for every entry that follows.
1. CCOC(=O)c1cc2c(-c3cc(N)ccc3Oc3ccccc3)cn(C)c(=O)c2[nH]1
2. CCS(=O)(=O)Nc1ccc(Oc2cncnc2)c(-c2cn(C)c(=O)c3[nH]ccc23)c1
3. Cn1cc(-c2cc(S(C)(=O)=O)ccc2Oc2ccccc2C#N)c2cc[nH]c2c1=O
4. CC(C)S(=O)(=O)c1ccc(NCC2CC2)c(-c2cn(C)c(=O)c3[nH]ccc23)c1
5. Cn1cc(-c2cc(S(N)(=O)=O)cnc2Nc2ccccc2)c2cc[nH]c2c1=O
6. CCS(=O)(=O)c1ccc(OCC2CC2)c(-c2cn(C)c(=O)c3[nH]ccc23)c1

Response:
[1.09, 1.18, 1.30, 0.20, 1.01, 0.20]
